Attribution: ChEMBL document CHEMBL1201861

Measured IC50 accompanies every entry in the list below.
Test system: MFM-223
Test: cells
Type: functional, cell-based, Homo sapiens
Details: Homo sapiens, MFM-223
Description: SANGER: Inhibition of human MFM-223 cell growth in a cell viability assay.

For record "CC(=O)O[C@@H]1[C@@H](OC(C)=O)[C@@H](O)[C@H](Oc2c(-c3ccc(O)cc3)oc3cc(O)cc(O)c3c2=O)O[C@H]1C" the listed IC50 is > 10 µM

Others:
For record "Cc1ccc(Nc2nccc(N(C)c3ccc4c(C)n(C)nc4c3)n2)cc1S(N)(=O)=O" the listed IC50 is > 8 µM

For record C=C1C(=O)O[C@@H]2C3O[C@]3(C)CC/C=C(\C)CC[C@@H]12 (some centres undefined) the listed IC50 is > 5 µM

For record "CO[C@H]1C[C@@H]2CC[C@@H](C)[C@@](O)(O2)C(=O)C(=O)N2CCCC[C@H]2C(=O)O[C@H]([C@H](C)C[C@@H]2CC[C@@H](O)[C@H](OC)C2)CC(=O)[C@H](C)/C=C(\C)[C@@H](O)[C@@H](OC)C(=O)[C@H](C)C[C@H](C)/C=C/C=C/C=C/1C" the listed IC50 is > 0.1 µM
